# test target: Serine/threonine-protein kinase/endoribonuclease IRE1 (Homo sapiens)
# Sequence (O75460 whole entry): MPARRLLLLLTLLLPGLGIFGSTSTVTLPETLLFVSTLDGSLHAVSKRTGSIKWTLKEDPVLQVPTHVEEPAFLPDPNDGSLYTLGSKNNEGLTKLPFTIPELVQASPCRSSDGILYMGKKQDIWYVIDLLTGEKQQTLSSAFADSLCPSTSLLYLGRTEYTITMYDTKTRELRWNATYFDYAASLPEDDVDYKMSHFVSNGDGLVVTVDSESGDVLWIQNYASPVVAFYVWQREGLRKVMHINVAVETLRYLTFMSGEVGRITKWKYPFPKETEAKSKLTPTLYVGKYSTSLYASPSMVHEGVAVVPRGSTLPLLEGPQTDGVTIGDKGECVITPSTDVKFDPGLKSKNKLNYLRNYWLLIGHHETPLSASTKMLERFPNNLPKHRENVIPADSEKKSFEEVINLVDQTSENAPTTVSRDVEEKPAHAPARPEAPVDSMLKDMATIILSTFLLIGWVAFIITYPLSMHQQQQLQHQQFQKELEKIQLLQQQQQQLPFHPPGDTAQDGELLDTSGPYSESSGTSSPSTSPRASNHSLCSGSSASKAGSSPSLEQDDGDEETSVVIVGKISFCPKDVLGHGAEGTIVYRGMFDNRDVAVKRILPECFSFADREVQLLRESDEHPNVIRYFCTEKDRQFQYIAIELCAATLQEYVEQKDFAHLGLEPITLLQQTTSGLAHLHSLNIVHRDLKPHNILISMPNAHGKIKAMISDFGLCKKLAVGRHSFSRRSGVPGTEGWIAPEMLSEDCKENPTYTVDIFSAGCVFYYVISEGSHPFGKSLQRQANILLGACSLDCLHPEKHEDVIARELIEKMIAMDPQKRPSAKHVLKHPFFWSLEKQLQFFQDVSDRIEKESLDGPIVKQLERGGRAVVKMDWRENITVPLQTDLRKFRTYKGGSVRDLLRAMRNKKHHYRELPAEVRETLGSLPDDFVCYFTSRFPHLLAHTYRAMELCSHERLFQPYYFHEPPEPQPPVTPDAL
# assay comment: Inhibition of IRE1alpha RNase activity (unknown origin) using XBP1 as substrate preincubated for 1 hr followed by thapsigargin stimulation for 5 hrs by One-Glo luciferase reagent based luminescence assay
pIC50: −log10 of the molar value.
Where pIC50 equals or exceeds 7, the correct label is YES; where it does not, the label is NO.

• Cc1ccc2c(NS(=O)(=O)c3ccccc3Cl)cccc2c1Oc1ncccc1-c1ccnc(N[C@H]2CCCN(CC(F)(F)F)C2)n1 = NO
• Cc1ccc(CNC(=O)N2CCC[C@]3(CCN(Cc4ccc(Cl)c(Cl)c4)C3)C2)cc1 = NO
• Cc1cc(NS(=O)(=O)Cc2ccccc2)c2ccccc2c1Oc1ncccc1-c1ccnc(N[C@H]2CCCNC2)n1 = YES
• Cc1c(Oc2ncccc2-c2ccnc(N[C@H]3CCCNC3)n2)ccc(NS(=O)(=O)Cc2ccccc2)c1F = NO
• Cc1cc(NS(=O)(=O)Cc2ccccc2)c(F)cc1Oc1ncccc1-c1ccnc(N[C@H]2CCCNC2)n1 = NO
• O=S(=O)(Cc1ccccc1)Nc1c(F)cc(Oc2ncccc2-c2ccnc(N[C@@H]3CNC[C@H](CF)C3)n2)c(F)c1F = YES
• O=S(=O)(Cc1ccccc1)Nc1c(F)cc(Oc2ncccc2-c2ccnc(N[C@@H]3CNC[C@@H](CF)C3)n2)c(F)c1F = NO
• Cc1ccc2c(NS(=O)(=O)Cc3ccccc3)cccc2c1Oc1ncccc1-c1ccnc(N[C@H]2CCCNC2)n1 = YES
• Cc1ccc2c(NS(=O)(=O)CC3CCCCC3)cccc2c1Oc1ncccc1-c1ccnc(N[C@H]2CCCNC2)n1 = NO
• O=S(=O)(Cc1ccccc1)Nc1c(F)cc(Oc2ncccc2-c2ccnc(N[C@H]3CCCNC3)n2)c(F)c1F = YES
• Cc1ccc2c(NS(=O)(=O)c3ccccc3Cl)cccc2c1Oc1ncccc1-c1ccnc(N[C@@H]2CCCNC2)n1 = NO
• Cc1cc(Oc2ncccc2-c2ccnc(N[C@H]3CCCNC3)n2)c(F)c(F)c1NS(=O)(=O)Cc1ccccc1 = YES
• O=S(=O)(Cc1ccccc1)Nc1c(F)cc(Oc2ncccc2-c2ccnc(N[C@@H]3CNC[C@H](F)C3)n2)c(F)c1F = NO
• Cc1ccc2c(NS(=O)(=O)c3ccccc3Cl)cccc2c1Oc1ncccc1-c1ccnc(N[C@@H]2CNCC(F)(F)C2)n1 = NO
